Test system: HCT-116 cell line
protocol_description: Inhibition of cell growth, MTT tetrazolium salt assay
Assay type: cell-based
settings: HCT-116 cells, 0.1 μM compound
# strict inequality: HCT-116 % Inhibition at 0.1 μM < 20% yields true, everything else yields false

Q: Identify whether the compound CC(C)C[C@@H](CO)NC(=O)c1ccc(Nc2nc(N)c(C(=O)c3c(F)cccc3F)s2)cc1 [Example G333] records HCT-116 % Inhibition at 0.1 μM below 20%.
Result: true

Q: Identify whether the compound COc1ccc(NC(=O)c2ccc(Nc3nc(N)c(C(=O)c4c(F)cccc4F)s3)cc2)cc1F [Example G347] records HCT-116 % Inhibition at 0.1 μM below 20%.
Result: false

Q: Identify whether the compound Cc1cc(NC(=O)c2ccc(Nc3nc(N)c(C(=O)c4c(F)cccc4F)s3)cc2)ccc1F [Example G330] records HCT-116 % Inhibition at 0.1 μM below 20%.
Result: true

Q: Identify whether the compound CCCCN(CC)CCNC(=O)c1ccc(Nc2nc(N)c(C(=O)c3c(F)cccc3F)s2)cc1 [Example G331] records HCT-116 % Inhibition at 0.1 μM below 20%.
Result: false

Q: Identify whether the compound Nc1nc(Nc2ccc(C(=O)NCCCCO)cc2)sc1C(=O)c1c(F)cccc1F [Example G256] records HCT-116 % Inhibition at 0.1 μM below 20%.
Result: true

Q: Identify whether the compound Nc1nc(Nc2ccc(C(=O)NCCCN(CCO)CCO)cc2)sc1C(=O)c1c(F)cccc1F [Example G339] records HCT-116 % Inhibition at 0.1 μM below 20%.
Result: true

Q: Identify whether the compound Nc1nc(Nc2ccc(C(=O)NCCCO)cc2)sc1C(=O)c1c(F)cccc1F [Example G334] records HCT-116 % Inhibition at 0.1 μM below 20%.
Result: true

Q: Identify whether the compound Nc1nc(Nc2ccc(C(=O)NCC3COc4ccccc4O3)cc2)sc1C(=O)c1c(F)cccc1F (stereo not shown) [Example G367] records HCT-116 % Inhibition at 0.1 μM below 20%.
Result: false

Q: Identify whether the compound Nc1nc(Nc2ccc(C(=O)Nc3ccc(O)c(Cl)c3)cc2)sc1C(=O)c1c(F)cccc1F [Example G394] records HCT-116 % Inhibition at 0.1 μM below 20%.
Result: true

Q: Identify whether the compound CSCCC(CO)NC(=O)c1ccc(Nc2nc(N)c(C(=O)c3c(F)cccc3F)s2)cc1 (stereo not shown) [Example G386] records HCT-116 % Inhibition at 0.1 μM below 20%.
Result: false

Q: Identify whether the compound CN(Cc1ccccc1Cl)C(=O)c1ccc(Nc2nc(N)c(C(=O)c3c(F)cccc3F)s2)cc1 [Example G259] records HCT-116 % Inhibition at 0.1 μM below 20%.
Result: false

Q: Identify whether the compound COc1cc(CNC(=O)c2ccc(Nc3nc(N)c(C(=O)c4c(F)cccc4F)s3)cc2)cc(OC)c1 [Example G262] records HCT-116 % Inhibition at 0.1 μM below 20%.
Result: false

Q: Identify whether the compound Nc1ccccc1CNC(=O)c1ccc(Nc2nc(N)c(C(=O)c3c(F)cccc3F)s2)cc1 [Example G384] records HCT-116 % Inhibition at 0.1 μM below 20%.
Result: false

Q: Identify whether the compound Nc1nc(Nc2ccc(C(=O)NCCc3ccccc3F)cc2)sc1C(=O)c1c(F)cccc1F [Example G206] records HCT-116 % Inhibition at 0.1 μM below 20%.
Result: true

Q: Identify whether the compound CN(CCC1OCCO1)C(=O)c1ccc(Nc2nc(N)c(C(=O)c3c(F)cccc3F)s2)cc1 [Example G387] records HCT-116 % Inhibition at 0.1 μM below 20%.
Result: false

Q: Identify whether the compound CN(CCCNC(=O)c1ccc(Nc2nc(N)c(C(=O)c3c(F)cccc3F)s2)cc1)c1ccccc1 [Example G363] records HCT-116 % Inhibition at 0.1 μM below 20%.
Result: false

Provenance of the data: patent US6720346B2
